System: NF-κB
Assay Protocol: Assay for NF-κB inhibition (luciferase reporter) in PMA-induced SW1353 cells
Type: cell-based
Reported Conditions: PMA-induced human chondrosarcoma cells (SW1353); NA = not active at 100 µM
Value Type: IC50 (µM)

As a guide, the following entries are already answered.
In [3]: df
Out[3]:
                                   compound  value_type  value
0  COCOc1cc(OCOC)c(C(=O)C(C)C)c(O)c1Cc1ccc(Br)cc1        IC50     29
1  CC(C)C(=O)c1c(O)cc(O)c(Cc2ccc(Br)cc2)c1O        IC50   37.5
2  CC(C)C(=O)c1c(O)cc(O)c(Cc2ccc(Cc3c(O)cc(O)c(C(=O)C(C)C)c3O)cc2)c1O        IC50     85

P. CC(=O)c1c(O)cc(O)c(C(C)=O)c1O
Q. CC(C)C(=O)c1c(O)cc(O)cc1O
R. C=C1C(=O)O[C@H]2[C@H]1CC/C(C)=C/CC[C@@]1(C)O[C@@H]21 [Parthenolide, reference compound]
Task field, ranking: reported IC50, descending order. Please reply with the labels ordered as requested. Many thanks.
Q, P, R
